- Test system: HIV-1
- method_notes: Anti-Viral Assay (method of Pauwels et al.)
- Assay type: cell-based
- stated_conditions: Human immunodeficiency virus 1, read-out: Anti-Viral Assay
outcome_measure: pEC50
// field semantics: pEC50 = negative decimal log of concentration (mol/L)

Please look up its pEC50: Cc1cc(C#N)ccc1Oc1ccc(CC(=O)Nc2ccc(S(N)(=O)=O)cc2Br)c(C)c1C 8.59

###

- assay_target: HIV-1 RT (Human immunodeficiency virus type 1 group M subtype B, UniProt P03366)
- method_notes: HIV Reverse Transcriptase Assay: Inhibitor IC50 Determination
- stated_conditions: purified recombinant enzyme, poly(rA)/oligo(dT)16 template-primer, 37° C. 30 min
param class (str): category from IC50; see ranges lower segment (below 100 nM), middle segment (100 nM to below 300 nM), upper segment (300 nM or more)

Sample answers from the record:
> print(dat)
                                   compound     group.label
1  Cc1cc(S(N)(=O)=O)ccc1NC(=O)Cc1ccc(Oc2c(Cl)cccc2Cl)c(Cl)c1 [Compound I-41]  middle segment
2  Cc1cc(S(N)(=O)=O)ccc1NC(=O)Cc1ccc(Oc2cc(Cl)cc(C#N)c2)c(C)c1C [Compound I-66]   lower segment
3  O=C(Cc1ccc(Oc2cc(Cl)ccc2Br)c(Cl)c1)Nc1ccccc1F [Compound I-8]   upper segment

Sort Cc1ccccc1NC(=O)Cc1ccc(Oc2cc(Cl)ccc2Br)c(Cl)c1 [Compound I-7] into one of the categories. upper segment

In plain terms, what class is COc1cc(CC(=O)Nc2ccc(S(N)(=O)=O)cc2Cl)ccc1Oc1cc(Cl)cc(C#N)c1 [Compound I-52] ? upper segment

Class (by measured IC50) for N#Cc1ccc(Cl)c(Oc2ccc(CC(=O)Nc3ccc(S(N)(=O)=O)cc3Cl)cc2Cl)c1 [Compound I-36] middle segment
